Origin of measurements: patent US20110142868A1

Reported conversion of 0708-30 by PAD4, 100 µM inhibitor values for the following binders.
Biological target: recombinant human PAD4 (human, UniProt Q9UM07 1-663)
Sequence (Q9UM07 whole entry): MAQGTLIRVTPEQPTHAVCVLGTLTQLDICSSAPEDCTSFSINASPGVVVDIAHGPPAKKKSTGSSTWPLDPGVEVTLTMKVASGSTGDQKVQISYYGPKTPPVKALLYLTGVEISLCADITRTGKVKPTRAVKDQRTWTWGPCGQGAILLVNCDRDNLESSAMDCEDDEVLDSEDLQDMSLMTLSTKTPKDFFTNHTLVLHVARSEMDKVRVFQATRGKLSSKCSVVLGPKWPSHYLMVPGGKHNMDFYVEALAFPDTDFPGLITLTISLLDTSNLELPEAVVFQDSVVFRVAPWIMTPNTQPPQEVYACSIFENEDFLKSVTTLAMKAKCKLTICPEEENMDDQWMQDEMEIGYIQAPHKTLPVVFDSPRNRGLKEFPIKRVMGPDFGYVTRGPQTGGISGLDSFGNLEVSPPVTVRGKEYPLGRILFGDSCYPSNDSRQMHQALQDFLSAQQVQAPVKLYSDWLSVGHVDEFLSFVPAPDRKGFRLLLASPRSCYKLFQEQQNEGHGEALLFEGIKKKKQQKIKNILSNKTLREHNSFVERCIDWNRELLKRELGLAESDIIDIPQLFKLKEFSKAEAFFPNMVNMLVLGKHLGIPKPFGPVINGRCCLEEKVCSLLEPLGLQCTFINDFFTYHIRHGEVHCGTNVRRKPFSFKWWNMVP
Experiment: cell-based or functional assay
Numbered stars: 1 amine (or outer) side, 2 acyl side, 3 side chain; on linkers, the order of the positions; unused ones are H or OH. Square brackets hold non-standard residues; d marks the D form. Orn(CA) = ornithine chloroamidine, O(CA), N=C(CCl)NCCC[C@H](N[*:1])C(=O)[*:2]; Orn(fluoroacetimidoyl) = N=C(CF)NCCC[C@H](N)C(=O)O
measured.quantity: conversion of 0708-30 by PAD4, 100 µM inhibitor (%)

binder | unit.spec | measurement
Ac-FFDSHKLH[Orn(CA)]EWMWSD-NH2 (SMILES CSCC[C@H](NC(=O)[C@H](Cc1c[nH]c2ccccc12)NC(=O)[C@H](CCC(=O)O)NC(=O)[C@H](CCCNC(=N)CCl)NC(=O)[C@H](Cc1c[nH]cn1)NC(=O)[C@H](CC(C)C)NC(=O)[C@H](CCCCN)NC(=O)[C@H](Cc1c[nH]cn1)NC(=O)[C@H](CO)NC(=O)[C@H](CC(=O)O)NC(=O)[C@H](Cc1ccccc1)NC(=O)[C@H](Cc1ccccc1)NC(C)=O)C(=O)N[C@@H](Cc1c[nH]c2ccccc12)C(=O)N[C@@H](CO)C(=O)N[C@@H](CC(=O)O)C(N)=O) [0741-04CA] | % | 26
Ac-FFDSHKLH[Orn(fluoroacetimidoyl)]EWMWSD-NH2 (SMILES CSCC[C@H](NC(=O)[C@H](Cc1c[nH]c2ccccc12)NC(=O)[C@H](CCC(=O)O)NC(=O)[C@H](CCCNC(=N)CF)NC(=O)[C@H](Cc1c[nH]cn1)NC(=O)[C@H](CC(C)C)NC(=O)[C@H](CCCCN)NC(=O)[C@H](Cc1c[nH]cn1)NC(=O)[C@H](CO)NC(=O)[C@H](CC(=O)O)NC(=O)[C@H](Cc1ccccc1)NC(=O)[C@H](Cc1ccccc1)NC(C)=O)C(=O)N[C@@H](Cc1c[nH]c2ccccc12)C(=O)N[C@@H](CO)C(=O)N[C@@H](CC(=O)O)C(N)=O) [0741-04FA] | % | 14
Ac-FFDSKHFD[Orn(CA)]EWIWSD-NH2 (SMILES CC[C@H](C)[C@H](NC(=O)[C@H](Cc1c[nH]c2ccccc12)NC(=O)[C@H](CCC(=O)O)NC(=O)[C@H](CCCNC(=N)CCl)NC(=O)[C@H](CC(=O)O)NC(=O)[C@H](Cc1ccccc1)NC(=O)[C@H](Cc1c[nH]cn1)NC(=O)[C@H](CCCCN)NC(=O)[C@H](CO)NC(=O)[C@H](CC(=O)O)NC(=O)[C@H](Cc1ccccc1)NC(=O)[C@H](Cc1ccccc1)NC(C)=O)C(=O)N[C@@H](Cc1c[nH]c2ccccc12)C(=O)N[C@@H](CO)C(=O)N[C@@H](CC(=O)O)C(N)=O) [0741-01CA] | % | 17
Ac-FFDSKHFD[Orn(fluoroacetimidoyl)]EWIWSD-NH2 (SMILES CC[C@H](C)[C@H](NC(=O)[C@H](Cc1c[nH]c2ccccc12)NC(=O)[C@H](CCC(=O)O)NC(=O)[C@H](CCCNC(=N)CF)NC(=O)[C@H](CC(=O)O)NC(=O)[C@H](Cc1ccccc1)NC(=O)[C@H](Cc1c[nH]cn1)NC(=O)[C@H](CCCCN)NC(=O)[C@H](CO)NC(=O)[C@H](CC(=O)O)NC(=O)[C@H](Cc1ccccc1)NC(=O)[C@H](Cc1ccccc1)NC(C)=O)C(=O)N[C@@H](Cc1c[nH]c2ccccc12)C(=O)N[C@@H](CO)C(=O)N[C@@H](CC(=O)O)C(N)=O) [0741-01FA] | % | 15
Ac-FFDSHKWH[Orn(fluoroacetimidoyl)]DFFYSD-NH2 (SMILES CC(=O)N[C@@H](Cc1ccccc1)C(=O)N[C@@H](Cc1ccccc1)C(=O)N[C@@H](CC(=O)O)C(=O)N[C@@H](CO)C(=O)N[C@@H](Cc1c[nH]cn1)C(=O)N[C@@H](CCCCN)C(=O)N[C@@H](Cc1c[nH]c2ccccc12)C(=O)N[C@@H](Cc1c[nH]cn1)C(=O)N[C@@H](CCCNC(=N)CF)C(=O)N[C@@H](CC(=O)O)C(=O)N[C@@H](Cc1ccccc1)C(=O)N[C@@H](Cc1ccccc1)C(=O)N[C@@H](Cc1ccc(O)cc1)C(=O)N[C@@H](CO)C(=O)N[C@@H](CC(=O)O)C(N)=O) [0741-02FA] | % | 16
Ac-DSKKHD[Orn(CA)]DFLYSD-NH2 (SMILES CC(=O)N[C@@H](CC(=O)O)C(=O)N[C@@H](CO)C(=O)N[C@@H](CCCCN)C(=O)N[C@@H](CCCCN)C(=O)N[C@@H](Cc1c[nH]cn1)C(=O)N[C@@H](CC(=O)O)C(=O)N[C@@H](CCCNC(=N)CCl)C(=O)N[C@@H](CC(=O)O)C(=O)N[C@@H](Cc1ccccc1)C(=O)N[C@@H](CC(C)C)C(=O)N[C@@H](Cc1ccc(O)cc1)C(=O)N[C@@H](CO)C(=O)N[C@@H](CC(=O)O)C(N)=O) [0741-06CA] | % | 50
Ac-FFDSHKFD[Orn(fluoroacetimidoyl)]DFIYSD-NH2 (SMILES CC[C@H](C)[C@H](NC(=O)[C@H](Cc1ccccc1)NC(=O)[C@H](CC(=O)O)NC(=O)[C@H](CCCNC(=N)CF)NC(=O)[C@H](CC(=O)O)NC(=O)[C@H](Cc1ccccc1)NC(=O)[C@H](CCCCN)NC(=O)[C@H](Cc1c[nH]cn1)NC(=O)[C@H](CO)NC(=O)[C@H](CC(=O)O)NC(=O)[C@H](Cc1ccccc1)NC(=O)[C@H](Cc1ccccc1)NC(C)=O)C(=O)N[C@@H](Cc1ccc(O)cc1)C(=O)N[C@@H](CO)C(=O)N[C@@H](CC(=O)O)C(N)=O) [0741-03FA] | % | 9
